tested on: Caco-2; assay: cell viability relative to DMSO; higher = less toxic; settings: 72 h; 1 nM
readoutKind: cell viability
Write the quantity with the unit trailing the number.

# input Give the reported value of cell viability for this record: c1cncc(CN2CCC(n3ncc4c(N5CCOCC5)nc(-c5ccc6[nH]ccc6c5)nc43)CC2)c1
# output 96.4%

# input Please give the documented cell viability of NC(=O)c1ccc(-c2nc(-c3ccccn3)c(-c3ccc4c(c3)OCO4)[nH]2)cc1
# output 89.3%

# input Supply measured cell viability of CC[C@H](C)[C@H](NC(=O)[C@H](Cc1ccc(O)cc1)NC(=O)[C@@H](NC(=O)[C@H](CCCNC(=N)N)NC(=O)[C@@H](N)CC(=O)O)C(C)C)C(=O)N[C@@H](Cc1c[nH]cn1)C(=O)N1CCC[C@H]1C(=O)O in your reply.
# output 104%

# input Hello, please tell me recorded cell viability for this one: CCc1ccc(Cc2ccc3c(c2)[C@]2(OC3)O[C@H](CO)[C@@H](O)[C@H](O)[C@H]2O)cc1
# output 97.8%

# input Identify measured cell viability associated with O=C(O)c1cc(C(=O)O)c(C(=O)N(Cc2cccc(Oc3ccccc3)c2)[C@H]2CCCc3ccccc32)cc1C(=O)O
# output 106%

# input Return the recorded cell viability value; entry: CC1=C(C(=O)OC2CCCCC2)C(c2ccc([N+](=O)[O-])cc2)C2=C(CC(C)(C)CC2=O)N1 (stereo not drawn)
# output 102%

# input Answer with reported cell viability of CCNC(=O)N1CCN(CCCC(c2ccc(F)cc2)c2ccc(F)cc2)CC1 [amperozide]
# output 96.5%

# input Query cell viability for c1ccc2c(c1)[I+]c1ccccc1-2
# output 92.9%

----------
test system: HepG2; assay: cell viability relative to DMSO; higher = less toxic; settings: 72 h; 10 nM
readoutKind: cell viability (%)
Provide only the numeric value, understood in %.

# input Give reported cell viability for CC/C(=C(/c1ccc(OCCN(C)C)cc1)c1cccc(O)c1)c1ccccc1 [droloxifene] (HepG2)
# output 101

# input Give cell viability for this entry on HepG2: c1ccc(Cn2c(-c3ccc(OC[C@H](C4CCNCC4)n4c(-c5ccccc5)nc5ccccc54)cc3)nc3ccccc32)cc1 [deltarasin]
# output 100

# input Specify the recorded cell viability for COc1cc(Nc2c(C#N)cnc3cc(OCCCN4CCN(C)CC4)c(OC)cc23)c(Cl)cc1Cl [bosutinib] , system: HepG2.
# output 101

# input Report its cell viability with HepG2 as the test system: C=CC[C@@H]1/C=C(\C)C[C@H](C)C[C@H](OC)[C@H]2O[C@@](O)(C(=O)C(=O)N3CCCC[C@H]3C(=O)O[C@H](/C(C)=C/[C@@H]3CC[C@@H](O)[C@H](OC)C3)[C@H](C)[C@@H](O)CC1=O)[C@H](C)C[C@@H]2OC [tacrolimus]
# output 99.6

# input Lab note: record cell viability of CC1(C)CCC(C)(C)c2cc(C(=O)Nc3ccc(C(=O)O)cc3)ccc21 [AM-580] tested on HepG2.
# output 101

# input Under HepG2: report cell viability of CCOc1ccc2ccccc2c1C(=O)N[C@@H]1C(=O)N2[C@@H]1SC(C)(C)[C@@H]2C(=O)O [nafcillin] .
# output 91.5

# input Give reported cell viability for CC(C)(C)NC(=O)N[C@H](C(=O)N1C[C@H]2[C@@H]([C@H]1C(=O)NC(CC1CCC1)C(=O)C(N)=O)C2(C)C)C(C)(C)C (stereo partly specified) [boceprevir] (HepG2)
# output 96.9

# input Jot down cell viability (HepG2) of Nc1nc(O)c2[nH]nnc2n1 [azaguanine-8] .
# output 100

# input Provide cell viability, system HepG2, entry CN(c1ncccc1CNc1nc(Nc2ccc3c(c2)CC(=O)N3)ncc1C(F)(F)F)S(C)(=O)=O
# output 113

# input Jot down cell viability (HepG2) of COc1cc(OC)c(C(=O)CCCN2CCCC2)c(OC)c1 [buflomedil] .
# output 97.2

# input Give cell viability for COc1cc2c(cc1Cc1cccc(Cl)c1F)c(=O)c(C(=O)O)cn2[C@H](CO)C(C)C [elvitegravir] tested on HepG2.
# output 106

# input Write cell viability of O=C(CCCl)NCCc1ccccc1 [fenaclon] ; system used: HepG2
# output 111

# input Give cell viability only, for NC(=O)OCC(COC(N)=O)c1ccccc1 [felbamate] , using HepG2 data.
# output 94.7

# input Please look at CN(Cc1ccccc1)C(=O)[C@H](Cc1ccc2ccccc2c1)NC(=O)[C@@H]1C[C@@H](O)CN1C(=O)c1cn(C)c2ccccc12 [FK-888] and tell me its recorded cell viability on HepG2.
# output 111

# input GET cell viability where system = HepG2 and item = CCOC(=O)[C@H](CCc1ccccc1)N[C@@H](C)C(=O)N1CCC[C@H]1C(=O)O [enalapril]
# output 95.4

# input Give cell viability for this entry on HepG2: CN[C@H](CC(=O)O)C(=O)O [NMDA]
# output 102
